Entry source: the supplement of paper PMC8882468

Exercise: state measured CTG-3D luminescence at 96 h for each of the compounds provided.
Tested on: HCI-015 (organoid from a triple-negative breast cancer xenograft)
assay-overview: CTG-3D luminescence at 96 h relative to day-0 seeding control (ratio to day 0); higher = more growth / less cytotoxicity; PDxO 3D drug screen (set 2), 96 h, CTG-3D normalised to day-0 seeding control.
assay-context: 1 µM; days in culture: 369
Give bare numbers.

These solved cases illustrate the format of a correct answer.
CC(=O)O[C@@]12CO[C@@H]1C[C@H](O)[C@@]1(C)C(=O)[C@H](O)C3=C(C)[C@@H](OC(=O)[C@H](O)[C@@H](NC(=O)OC(C)(C)C)c4ccccc4)C[C@@](O)([C@@H](OC(=O)c4ccccc4)[C@H]21)C3(C)C [docetaxel] :: 0.553
CC(C)n1nc(-c2ccc3oc(N)nc3c2)c2c(N)ncnc21 [sapanisertib] :: 0.611
CO[C@H]1C[C@@H]2CC[C@@H](C)[C@@](O)(O2)C(=O)C(=O)N2CCCC[C@H]2C(=O)O[C@H]([C@H](C)C[C@@H]2CC[C@@H](OCCO)[C@H](OC)C2)CC(=O)[C@H](C)/C=C(\C)[C@@H](O)[C@@H](OC)C(=O)[C@H](C)C[C@H](C)/C=C/C=C/C=C/1C [everolimus] :: 1.84

We now examine a further compound.
Consider CCOc1ccn(-c2ccc(F)cc2)c(=O)c1C(=O)Nc1ccc(Oc2ccnc(N)c2Cl)c(F)c1 [ASLAN002] . Its measured CTG-3D luminescence at 96 h is 2.23

* * *

Test system: HCI-025 (organoid from a breast cancer xenograft)
assay-overview: CTG-3D luminescence at 96 h relative to day-0 seeding control (ratio to day 0); higher = more growth / less cytotoxicity; PDxO 3D drug screen, 96 h, CTG-3D normalised to day-0 seeding control.
assay-context: 625 fM; days in culture: 218
test-readout: CTG-3D luminescence at 96 h
Answers are plain numbers.

Solved cases below.
Cc1cc(Nc2ncnc3ccc(NC4=NC(C)(C)CO4)cc23)ccc1Oc1ccn2ncnc2c1 [tucatinib] :: 1.71
C[C@]12CC[C@@H]3c4ccc(O)cc4C[C@@H](CCCCCCCCC[S+]([O-])CCCC(F)(F)C(F)(F)F)[C@H]3[C@@H]1CC[C@@H]2O (some centres undefined) [fulvestrant] :: 1.28
NC(=O)c1cccc2cn(-c3ccc([C@@H]4CCCNC4)cc3)nc12 [niraparib] :: 1.62
CN(Cc1cnc2nc(N)nc(N)c2n1)c1ccc(C(=O)N[C@@H](CCC(=O)O)C(=O)O)cc1 [methotrexate] :: 1.76
Cc1nc(-c2cn3c(n2)-c2ccc(-c4cnn(C(C)(C)C(N)=O)c4)cc2OCC3)n(C(C)C)n1 [taselisib] :: 1.54
CCN(c1cc(C#CCN2CCOCC2)cc(C(=O)NCc2c(C)cc(C)[nH]c2=O)c1C)[C@H]1CC[C@H](N(C)CCOC)CC1 :: 1.76

Here are 3 compounds. What values of CTG-3D luminescence at 96 h were reported for them?
1. CC(C)(C(=O)NCC(F)(F)C(F)(F)F)C(=O)N[C@@H]1C(=O)Nc2ccccc2-c2ccccc21
2. C[C@H](NC(=O)CCC(F)(F)F)C(=O)N[C@@H]1C(=O)N(CCO)c2ncccc2-c2ccccc21 [crenigacestat]
3. C[C@@H]1COCCN1c1cc(C2([S@](C)(=N)=O)CC2)nc(-c2cc[nH]c3nccc2-3)n1 [ceralasertib]

Outgoing:
1. 2.19
2. 2.02
3. 1.88

* * *

System: HCI-024 (organoid from a breast cancer xenograft)
assay-overview: CTG-3D luminescence at 96 h relative to day-0 seeding control (ratio to day 0); higher = more growth / less cytotoxicity; PDxO 3D drug screen (set 2), 96 h, CTG-3D normalised to day-0 seeding control.
assay-context: 12.5 pM; days in culture: 254
test-readout: CTG-3D luminescence at 96 h
Numbers only.

Answered cases to consult:
O=C(c1cc(Cc2n[nH]c(=O)c3ccccc23)ccc1F)N1CCN(C(=O)C2CC2)CC1 :: 1.65
CC(=O)c1c(C)c2cnc(Nc3ccc(N4CCNCC4)cn3)nc2n(C2CCCC2)c1=O :: 1.24
CS(=O)(=O)CCNCc1ccc(-c2ccc3ncnc(Nc4ccc(OCc5cccc(F)c5)c(Cl)c4)c3c2)o1 :: 1.47
CO[C@H]1C[C@@H]2CC[C@@H](C)[C@@](O)(O2)C(=O)C(=O)N2CCCC[C@H]2C(=O)O[C@H]([C@H](C)C[C@@H]2CC[C@@H](O)[C@H](OC)C2)CC(=O)[C@H](C)/C=C(\C)[C@@H](O)[C@@H](OC)C(=O)[C@H](C)C[C@H](C)/C=C/C=C/C=C/1C :: 1.73

Let us move to another entry and its CTG-3D luminescence at 96 h.
Measured CTG-3D luminescence at 96 h, C[C@@H](Nc1cc(F)cc(F)c1)c1cc(C(=O)N(C)C)cc2c(=O)cc(N3CCOCC3)oc12 : 1.17

* * *

Tested on: HCI-015
assay-overview: CTG-3D luminescence at 96 h relative to day-0 seeding control (ratio to day 0); higher = more growth / less cytotoxicity; PDxO 3D drug screen, 96 h, CTG-3D normalised to day-0 seeding control.
assay-context: 0.00025 µM; days in culture: 172
test-readout: CTG-3D luminescence at 96 h

Solved entries (count: 3):
C[C@]12CC[C@@H]3c4ccc(O)cc4C[C@@H](CCCCCCCCC[S+]([O-])CCCC(F)(F)C(F)(F)F)[C@H]3[C@@H]1CC[C@@H]2O (some centres undefined) :: 1.73
CCN(c1cc(C#CCN2CCOCC2)cc(C(=O)NCc2c(C)cc(C)[nH]c2=O)c1C)[C@H]1CC[C@H](N(C)CCOC)CC1 :: 1.77
CC(C)(C(=O)NCC(F)(F)C(F)(F)F)C(=O)N[C@@H]1C(=O)Nc2ccccc2-c2ccccc21 :: 0.907

Kindly review the next compound as well.
Documented CTG-3D luminescence at 96 h of Cc1cc(Nc2ncc(Cl)c(Nc3ccccc3S(=O)(=O)C(C)C)n2)c(OC(C)C)cc1C1CCNCC1 : 1.75

* * *

Please respond with reported CTG-3D luminescence at 96 h for every item in the list.
Test system: HCI-002 (organoid from a triple-negative breast cancer xenograft)
assay-overview: CTG-3D luminescence at 96 h relative to day-0 seeding control (ratio to day 0); higher = more growth / less cytotoxicity; PDxO 3D drug screen, 96 h, CTG-3D normalised to day-0 seeding control.
assay-context: 100 µM; days in culture: 62
One number for each entry.

Examples with answers:
CC(=O)O[C@H]1C(=O)[C@@]2(C)[C@H]([C@H](OC(=O)c3ccccc3)[C@]3(O)C[C@H](OC(=O)[C@H](O)[C@@H](NC(=O)c4ccccc4)c4ccccc4)C(C)=C1C3(C)C)[C@]1(OC(C)=O)CO[C@@H]1C[C@@H]2O [paclitaxel] :: 0.316
C[C@@H]1COCCN1c1cc(C2([S@](C)(=N)=O)CC2)nc(-c2cc[nH]c3nccc2-3)n1 [ceralasertib] :: 0.574
C=CC(=O)N1CCC[C@@H](n2nc(-c3ccc(Oc4ccccc4)cc3)c3c(N)ncnc32)C1 [ibrutinib] :: -0.0218

Dear colleague, could you please provide CTG-3D luminescence at 96 h for the compounds listed below?
1. O=C(/C=C/c1cccnc1)NCCCCC1CCN(C(=O)c2ccccc2)CC1 [FK866]
2. CCN(c1cc(C#CCN2CCOCC2)cc(C(=O)NCc2c(C)cc(C)[nH]c2=O)c1C)[C@H]1CC[C@H](N(C)CCOC)CC1
3. CS(=O)(=O)c1ccc(C(=O)Nc2ccc(Cl)c(-c3ccccn3)c2)c(Cl)c1 [vismodegib]

Outgoing:
0.0284
3.84
0.385

* * *

Tested on: HCI-025
assay-overview: CTG-3D luminescence at 96 h relative to day-0 seeding control (ratio to day 0); higher = more growth / less cytotoxicity; PDxO 3D drug screen, 96 h, CTG-3D normalised to day-0 seeding control.
assay-context: 625 fM; days in culture: 209
Give measured CTG-3D luminescence at 96 h for each item. Keep answers brief.
Numbers only.

Nc1ccn([C@@H]2O[C@H](CO)[C@@H](O)C2(F)F)c(=O)n1 [gemcitabine] :: 1.79
Cc1cc(Nc2ncnc3ccc(NC4=NC(C)(C)CO4)cc23)ccc1Oc1ccn2ncnc2c1 [tucatinib] :: 1.06

Next:
The compound listed as CN(Cc1cnc2nc(N)nc(N)c2n1)c1ccc(C(=O)N[C@@H](CCC(=O)O)C(=O)O)cc1 [methotrexate] has a reported CTG-3D luminescence at 96 h of 1.49

* * *

System: HCI-023 (organoid from a triple-negative breast cancer xenograft)
assay-overview: CTG-3D luminescence at 96 h relative to day-0 seeding control (ratio to day 0); higher = more growth / less cytotoxicity; PDxO 3D drug screen, 96 h, CTG-3D normalised to day-0 seeding control.
assay-context: 100 µM; days in culture: 128
test-readout: CTG-3D luminescence at 96 h
One number for each entry.

# example entries with known answers
CCc1c2c(nc3ccc(O)cc13)-c1cc3c(c(=O)n1C2)COC(=O)[C@]3(O)CC :: 0.0252
C=CC(=O)N1CCC[C@@H](n2nc(-c3ccc(Oc4ccccc4)cc3)c3c(N)ncnc32)C1 :: -0.00478
NC1(C(=O)N[C@@H](CCO)c2ccc(Cl)cc2)CCN(c2nc[nH]c3nccc2-3)CC1 :: 0.277

Switching to the query record.
C[C@@H]1COCCN1c1cc(C2([S@](C)(=N)=O)CC2)nc(-c2cc[nH]c3nccc2-3)n1 has a reported CTG-3D luminescence at 96 h of 0.38
